Molecular target: T1, murine CD22 protein (ACROBiosystems, SI2-M52Ha) (murine, UniProt P35329 22-708)
T1 construct: extracellular domain; also called murine CD22-ECD; murine CD22-ECD-His
T1 sequence (looked up): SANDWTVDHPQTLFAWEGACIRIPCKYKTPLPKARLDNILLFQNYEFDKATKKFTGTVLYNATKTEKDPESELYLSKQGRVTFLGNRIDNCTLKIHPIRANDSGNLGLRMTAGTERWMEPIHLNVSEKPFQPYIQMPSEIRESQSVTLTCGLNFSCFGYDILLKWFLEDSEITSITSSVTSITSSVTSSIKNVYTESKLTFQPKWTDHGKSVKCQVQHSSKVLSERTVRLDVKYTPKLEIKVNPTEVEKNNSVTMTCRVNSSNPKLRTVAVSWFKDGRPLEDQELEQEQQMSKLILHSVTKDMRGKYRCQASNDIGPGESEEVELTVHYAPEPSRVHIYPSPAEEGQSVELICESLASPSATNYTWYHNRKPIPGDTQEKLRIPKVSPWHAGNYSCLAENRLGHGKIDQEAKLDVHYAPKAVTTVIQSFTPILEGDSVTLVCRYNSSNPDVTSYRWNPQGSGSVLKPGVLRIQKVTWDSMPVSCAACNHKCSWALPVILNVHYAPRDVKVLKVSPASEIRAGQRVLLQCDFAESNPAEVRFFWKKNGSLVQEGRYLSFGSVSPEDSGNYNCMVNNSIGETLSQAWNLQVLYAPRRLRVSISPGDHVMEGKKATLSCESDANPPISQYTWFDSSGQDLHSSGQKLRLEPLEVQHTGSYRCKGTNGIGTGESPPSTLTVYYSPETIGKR
Experiment: ELISA, coated murine CD22, 100 nM Ab
reported_property: OD450 (OD450)
Value expressed in OD450; do not type the unit.

Item F1.62.10 human-murine chimeric antibody (antibody, human IgG1, kappa, V domains shown, Chimeric, human IgG1 / kappa) VH: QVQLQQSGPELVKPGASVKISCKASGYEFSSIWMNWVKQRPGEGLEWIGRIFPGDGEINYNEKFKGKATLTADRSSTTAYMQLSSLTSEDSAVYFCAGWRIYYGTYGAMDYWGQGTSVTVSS VL: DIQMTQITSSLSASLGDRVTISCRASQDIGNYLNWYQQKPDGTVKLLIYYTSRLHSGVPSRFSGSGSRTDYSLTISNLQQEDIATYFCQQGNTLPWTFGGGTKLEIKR has what recorded OD450?
0.08

Now try F1.224.1 human-murine chimeric antibody (antibody, human IgG1, kappa, V domains shown, Chimeric, human IgG1 / kappa; VL tied by name) VH: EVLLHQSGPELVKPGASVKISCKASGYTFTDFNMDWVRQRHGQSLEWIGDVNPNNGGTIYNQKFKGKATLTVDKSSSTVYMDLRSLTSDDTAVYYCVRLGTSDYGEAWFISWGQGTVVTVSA VL: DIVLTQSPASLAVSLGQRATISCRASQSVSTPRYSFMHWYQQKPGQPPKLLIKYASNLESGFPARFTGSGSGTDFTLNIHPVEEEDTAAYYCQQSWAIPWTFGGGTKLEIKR .
0.07
